molecular target: recombinant human iNOS (Homo sapiens, UniProt P35228); assay: NOS enzyme assay
Sequence (P35228 whole entry): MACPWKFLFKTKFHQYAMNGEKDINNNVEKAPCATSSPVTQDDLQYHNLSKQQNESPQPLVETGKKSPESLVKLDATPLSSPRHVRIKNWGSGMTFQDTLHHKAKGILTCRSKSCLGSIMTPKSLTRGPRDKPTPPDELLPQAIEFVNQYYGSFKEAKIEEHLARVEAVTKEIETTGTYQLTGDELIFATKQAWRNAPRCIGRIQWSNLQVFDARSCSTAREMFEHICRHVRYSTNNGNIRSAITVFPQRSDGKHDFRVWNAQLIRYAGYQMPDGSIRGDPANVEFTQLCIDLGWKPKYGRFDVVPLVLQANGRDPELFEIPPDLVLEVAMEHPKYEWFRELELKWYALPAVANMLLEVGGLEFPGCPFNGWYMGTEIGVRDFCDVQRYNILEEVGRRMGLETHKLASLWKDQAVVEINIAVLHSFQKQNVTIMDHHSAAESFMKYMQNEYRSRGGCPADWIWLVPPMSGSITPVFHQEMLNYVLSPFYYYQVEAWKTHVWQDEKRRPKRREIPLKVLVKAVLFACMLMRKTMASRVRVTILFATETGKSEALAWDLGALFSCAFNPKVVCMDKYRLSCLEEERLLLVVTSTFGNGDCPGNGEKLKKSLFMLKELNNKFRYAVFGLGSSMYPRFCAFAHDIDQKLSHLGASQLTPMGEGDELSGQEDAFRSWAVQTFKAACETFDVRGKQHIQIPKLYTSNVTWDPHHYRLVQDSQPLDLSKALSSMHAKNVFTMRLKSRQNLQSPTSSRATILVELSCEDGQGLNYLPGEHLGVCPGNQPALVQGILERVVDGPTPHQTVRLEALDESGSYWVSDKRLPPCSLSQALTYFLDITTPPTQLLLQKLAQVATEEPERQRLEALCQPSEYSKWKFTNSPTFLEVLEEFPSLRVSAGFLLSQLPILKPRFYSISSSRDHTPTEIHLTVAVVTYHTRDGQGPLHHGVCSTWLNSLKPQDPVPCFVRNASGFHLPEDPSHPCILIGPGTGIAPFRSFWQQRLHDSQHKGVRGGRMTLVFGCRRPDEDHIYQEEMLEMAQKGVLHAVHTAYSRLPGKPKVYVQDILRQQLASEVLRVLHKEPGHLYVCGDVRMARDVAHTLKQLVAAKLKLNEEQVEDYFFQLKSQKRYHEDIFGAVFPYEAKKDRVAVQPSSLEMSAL
ENDPOINT: IC50 (µM)
Please give a number only; it is taken to be in µM.

[Q] What measured IC50 goes with Nc1ccccn1 [Compound 2-AP, 2-aminopyridine, reference compound] ?
[A] 0.108
